Test: NCI Yeast Anticancer Drug Screen. Data for the mlh1 rad18 strain (AID 175)
Settings: S. cerevisiae mlh1 rad18 strain growth inhibition; at 50.0 µM (retest, dose inferred, filed as 5.0); active compounds read high
The panel holds about 79,000 compounds, 15% with a hit somewhere; the sample as a whole holds those more often.
Rule: Criterion met for growth inhibition not less than 50%, Criterion not met for anything less.

Previously resolved entries follow.
{"columns": ["Molecule", "Group Label"],
 "data": [
  ["Cc1ccc(C2COc3cc(O)c(O)cc3C2)cc1 (stereo not drawn)", "Criterion met"],
  ["CN(C)C1CCC2C3CCC4=CC(=O)CCC4(C)C3CCC21C (stereo not drawn)", "Criterion not met"]
]}

Exam item: Dear colleague, could you confirm whether CCCCCCCCCCS(=O)(=O)Nc1ccc(C(=O)NN)cc1 has growth inhibition at or above 50%?
Marked response: Criterion met

Exam item: Please check the record CC1=C(C)C(=O)C(CNCc2ccccc2)=[C-]C1=O.[Co].[c-]1[c-][c-][cH-][c-]1 and state if its growth inhibition is at or above 50%.
Marked response: Criterion not met

Exam item: Determine whether measured growth inhibition meets or exceeds 50% for CSC1NNC2(C(=O)N1)c1ccccc1-c1ccccc12 (stereo not drawn)
Marked response: Criterion met

Exam item: Reported growth inhibition reaches at least 50% for CCS(=O)(=O)/C=C\S(=O)(=O)CC ?
Marked response: Criterion not met

Exam item: I'd appreciate it if you could say whether CCC(CO)Nc1nc2ccc(Br)cc2c2ccccc12 (stereo not drawn) has growth inhibition at least equal to 50%.
Marked response: Criterion met
